# EXPERIMENTAL DETAILS: NCI Yeast Anticancer Drug Screen. Data for the bub3 strain (AID 167)
# ASSAY SETUP: S. cerevisiae bub3 mutant strain, at 50.0 µM, hits give high values
This is part of a sample that, as a whole, favours compounds with a hit. Of some 79,000 tested, about 15% had one in any assay. Where a SMILES comes first, the peptide text is derived from it. Bridges are numbered along the chain shown (N, C = ends). [ ]: non-standard residue; d: D form. The star is where a group is joined. Cbz = O=C(OCc1ccccc1)*; Nva = CCC[CH](N)C(=O)O; Aib = CC(C)(N)C(=O)O; OBn = c1ccc(CO*)cc1; βAla = NCCC(=O)O
Overview of recorded growth inhibition for various compounds
QUANTITY: growth inhibition (%)

| COMPOUND | QUANTITY | EXPERIMENTAL RESULT |
| --- | --- | --- |
| CCCCCOS(=O)(=O)O | growth inhibition | -0.25 |
| COc1ccc2ccccc2c1I | growth inhibition | 23.6 |
| CC(=NNC(=S)Nc1cccc(C)c1)c1cccc(C(C)=NNC(=S)Nc2cccc(C)c2)n1 | growth inhibition | 35.4 |
| CS(=O)(=O)CCCCCCCCCCC(=O)O | growth inhibition | 10.4 |
| O=C(O)C(C(=O)O)C(c1ccccc1)c1ccccc1Br (stereo unspecified) | growth inhibition | 23.9 |
| CC(C)OC(=S)SCC(=O)c1ccc(-c2ccccc2)cc1 | growth inhibition | 30.9 |
| O=C(Nc1ccc([N+](=O)[O-])cc1)c1cc(N2CCOCC2)ccn1 | growth inhibition | 2.15 |
| O=C(O)CSC(=S)c1ccccc1 | growth inhibition | -15.8 |
| O=C(Nc1ccc2[nH]c3c(-c4ccccc4)nccc3c2c1)c1ccccc1[N+](=O)[O-] | growth inhibition | -2.75 |
| Nc1ccc(OCC(O)CN2CCN(c3ccccc3)CC2)cc1 (stereo unspecified) | growth inhibition | 10.6 |
| O=C(/C=C/c1ccc(O)cc1)c1ccc(O)cc1 | growth inhibition | -2.9 |
| c1ccc2c(c1)CCCN2c1nc(N2CCCC2)nc(N2CCOCC2)n1 | growth inhibition | 5.45 |
| O=C(O)c1cc(=O)c2[nH]c3ccccc3c2s1 | growth inhibition | -22.6 |
| CCOC(=O)OC1C(OC)OC2COC(c3ccccc3)OC2C1OC(=O)OCC (stereo unspecified) | growth inhibition | -2.25 |
| COC(=O)Cc1cc(=O)c2cc(C)ccc2[nH]1 | growth inhibition | -13.9 |
| CC1CS(=O)(=O)O1 (stereo unspecified) | growth inhibition | 10.3 |
| CCCCCCCCCCCCCCCC(=O)N(CCCCCCCCCCC(=O)O)CC(O)C(O)C(OC1OC(CO)C(O)C(O)C1O)C(O)CO (stereo unspecified) | growth inhibition | 50.6 |
| CS(=O)(=O)OCc1nnn(-c2ccccc2)c1COS(C)(=O)=O | growth inhibition | 11.5 |
| C(CC1CCNCC1)CC1CCNCC1 | growth inhibition | 12.2 |
| O=C(O)C1C(c2ccccc2)CC(=O)N1c1ccc(Cl)cc1 (stereo unspecified) | growth inhibition | 19.6 |
| Fc1cccc2cccnc12 | growth inhibition | 12.7 |
| CCN1CSC(=S)N(Cc2ccccc2)C1 | growth inhibition | 28.2 |
| CCCC(NC(=O)OCc1ccccc1)C(=O)NC(Cc1ccccc1)C(N)=O (stereo unspecified) (Cbz-[Nva]-Phe-NH2; configuration not given here) | growth inhibition | -5.5 |
| O=C1c2ccccc2C(=O)N1C/C=C/CN1C(=O)c2ccccc2C1=O | growth inhibition | 8.05 |
| CC(=O)C(Cc1ccccc1)(Cc1ccccc1)C(C)=O | growth inhibition | 1.35 |
| COc1cc(C2=N/C(=C\c3cccc([N+](=O)[O-])c3)C(=O)O2)cc(OC)c1OC | growth inhibition | -0.2 |
| CC(C)CCOc1ccc(C(N)=S)c2ccccc12 | growth inhibition | 84 |
| CN/N=C(\C)CC(=O)Nc1cccc(Cl)c1C | growth inhibition | -15 |
| N#CC1CCCCC(=O)N1 (stereo unspecified) | growth inhibition | -1.2 |
| O=C(NC(=O)c1ccccc1[N+](=O)[O-])Nc1ccc(Oc2ncc(Br)cn2)c(Cl)c1 | growth inhibition | -9.25 |
| COc1ccc2c(c1)c(=O)c1ccccc1n2/C=C/C(=O)O | growth inhibition | -3.05 |
| C[C@]12CC[C@@H]3c4cc(C=O)c(OCc5ccccc5)cc4CC[C@H]3[C@@H]1CCC2OCc1ccccc1 (stereo partly specified) | growth inhibition | -2.65 |
| Cn1c(COC(=O)NC2CCCCC2)c(COC(=O)NC2CCCCC2)c2ccc3cc(C=O)ccc3c21 | growth inhibition | -10.4 |
| CC1(C)NC(=O)C(NC(=O)C(CC(=O)OCc2ccccc2)NC(=O)OCc2ccccc2)CCCCNC(=O)CCNC1=O (stereo unspecified) (Cbz-D(OBn)K[Aib][βAla]; lactam 2-C; configuration not given here) | growth inhibition | -2.35 |
| Cc1ccc([N+](=O)[O-])cc1NC(=O)Nc1cccc(Cl)c1Cl | growth inhibition | 18.1 |
| COc1ccc(C2C3=CONC3CC3CCCCC32)cc1 (stereo unspecified) | growth inhibition | 6.25 |
| O=C(NN1C(=O)C(Cl)C1c1ccccc1O)c1ccccc1O (stereo unspecified) | growth inhibition | -16.6 |
| CCCCn1cc(C(=O)O)c(=O)c2c3sccc3ccc21 | growth inhibition | -9.5 |
| Cc1nc(N)c2c(n1)C(Cc1ccccc1)N(C(=O)c1ccccc1)C2 (stereo unspecified) | growth inhibition | 6.55 |
| CCC(=O)c1ccc(OC(C)=O)cc1 | growth inhibition | 5.7 |
| Cc1cccc(-c2nc3sc(-c4cccc(C)n4)nc3s2)n1 | growth inhibition | 4.05 |
| C[N+](C)(C)C1=CC=CC=C1.Br[Br-]Br | growth inhibition | 11.6 |
| Cc1nc(=S)c2[nH]c(=S)[nH]c2[nH]1 | growth inhibition | -1.9 |
| NC(N)=NS(=O)(=O)c1ccc(N=Cc2c3ccccc3nc3ccccc23)cc1 | growth inhibition | 96 |
| CNC(=O)c1cc(OC)ccc1O | growth inhibition | -3.6 |
| O=C1c2ccccc2NC(c2cc(Cl)cc(Cl)c2O)N1CCc1ccccn1 (stereo unspecified) | growth inhibition | -25.1 |
